Molecular target: T1, EsCas13d, nuclease-dead (Eubacterium siraeum, UniProt B0MS50, R295A;H300A;R849A;H854A)
T1 sequence: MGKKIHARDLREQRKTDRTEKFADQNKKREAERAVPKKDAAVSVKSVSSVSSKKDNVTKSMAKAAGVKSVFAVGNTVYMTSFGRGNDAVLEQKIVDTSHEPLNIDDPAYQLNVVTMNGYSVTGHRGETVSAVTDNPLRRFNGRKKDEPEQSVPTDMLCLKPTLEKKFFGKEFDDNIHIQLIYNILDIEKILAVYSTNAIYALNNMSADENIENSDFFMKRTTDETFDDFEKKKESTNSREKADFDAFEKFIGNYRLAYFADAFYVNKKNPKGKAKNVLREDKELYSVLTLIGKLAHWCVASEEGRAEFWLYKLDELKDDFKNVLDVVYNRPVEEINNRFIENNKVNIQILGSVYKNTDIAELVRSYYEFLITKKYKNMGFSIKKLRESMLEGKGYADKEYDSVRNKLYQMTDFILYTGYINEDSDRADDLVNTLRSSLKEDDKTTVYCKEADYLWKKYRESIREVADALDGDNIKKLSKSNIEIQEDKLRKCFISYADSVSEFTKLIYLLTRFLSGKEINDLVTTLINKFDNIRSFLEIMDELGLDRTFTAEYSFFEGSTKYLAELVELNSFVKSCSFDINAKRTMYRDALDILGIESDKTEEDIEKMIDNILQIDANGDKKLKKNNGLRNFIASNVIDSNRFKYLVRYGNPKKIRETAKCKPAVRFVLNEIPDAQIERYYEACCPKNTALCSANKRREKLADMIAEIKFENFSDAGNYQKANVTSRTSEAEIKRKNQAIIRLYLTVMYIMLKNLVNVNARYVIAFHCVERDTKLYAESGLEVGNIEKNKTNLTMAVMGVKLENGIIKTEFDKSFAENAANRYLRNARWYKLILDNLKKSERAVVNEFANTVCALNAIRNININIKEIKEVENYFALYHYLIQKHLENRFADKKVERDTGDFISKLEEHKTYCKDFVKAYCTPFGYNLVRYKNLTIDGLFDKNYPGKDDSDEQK
Test: crRNA (strand 1, pre-loaded); Mg2+; 40 mM Tris-HCl pH 7.5, 150 mM NaCl, 6 mM MgCl2, 1 mM DTT, 0.1% Tween-20, 0.2 mg/ml BSA; 25 C; 10 min per concentration, then washed
Conditions: tags: His6-TwinStrep-SUMO cleaved; N-terminal SNAP kept (SNAP-Surface 488); label: 3' end held by stalled T7 RNA polymerase
MEASURED PARAMETER: pKd
Note on pKd: it is the negative log10 of concentration, concentration in mol/L.

## Input Supply recorded pKd for target 1 MT 5'PFS UUG 3'PFS CGA (mixed) RNA 1: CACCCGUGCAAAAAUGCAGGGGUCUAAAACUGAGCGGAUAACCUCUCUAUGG RNA 2: GGGAAUGGAUCCACAUCUACGAAUUCUUGCCAUAGAGAGGUUAUCCGCUCACGAAGAUCGGAAGAGCACACGU here.
## Output 7.32

## Input Supply recorded pKd for target 1 MT 5'PFS GGG 3'PFS CUA (mixed) RNA 1: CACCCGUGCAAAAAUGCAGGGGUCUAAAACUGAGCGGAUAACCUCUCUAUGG RNA 2: GGGAAUGGAUCCACAUCUACGAAUUCGGGCCAUAGAGAGGUUAUCCGCUCACUAAGAUCGGAAGAGCACACGU here.
## Output 7.60
